# target_desc: human 17β-HSD1 (Homo sapiens)
# Construct: For the partial purification of 17β-HSD1, the cytosolic fraction was precipitated with ammonium sulfate; from tissue; host or cells: human placenta, cytosolic fraction, ammonium sulfate precipitate
# protocol_summary: Inhibition of human 17β-HSD1 (conversion of [3H]-E1 to E2, HPLC radioflow detection)
# Assay type: biochemical
# assay_context: read-out: IC50 [nM] h17β-HSD1
Please respond with Satisfied when measured IC50 is strictly beneath 7 nM, and with Not satisfied in all other cases.

As a guide, the following entries are already answered.
compound	class_name
Cc1cc(-c2ccc(C(=O)c3c(F)ccc(O)c3F)s2)cc(C)c1O	Satisfied
CC(C)Oc1ccc(-c2ccc(C(=O)c3c(F)ccc(O)c3F)s2)cc1C#N	Not satisfied
Cc1cc(-c2ccc(C(=O)c3c(F)ccc(O)c3F)s2)cc(Cl)c1O	Satisfied
Cc1cc(-c2ccc(C(=O)c3cccc(O)c3)s2)ccc1O [Compound F1, reference compound]	Not satisfied
O=C(c1ccc(-c2cccc(Cl)c2O)s1)c1c(F)ccc(O)c1F	Not satisfied

Check if IC50 falls below 7 nM for `COc1c(Cl)cc(-c2ccc(C(=O)c3c(F)ccc(O)c3F)s2)cc1CN1CCN(C(C)=O)CC1` .
Satisfied

Here's an entry: `O=C(c1ccc(-c2cc(Cl)c(O)c(Cl)c2)s1)c1c(F)ccc(O)c1F` . Is its IC50 below 7 nM?
Satisfied

Identify whether the compound `CC(=O)N1CCN(Cc2cc(-c3ccc(C(=O)c4c(F)ccc(O)c4F)s3)cc(Cl)c2O)CC1` records IC50 below 7 nM.
Satisfied

* * *

# target_desc: human 17β-HSD2 (Homo sapiens, UniProt P37059)
# Construct: 17β-HSD2 was obtained from the microsomal fraction; from tissue; host or cells: human placenta, microsomal fraction
# Sequence (P37059 whole entry): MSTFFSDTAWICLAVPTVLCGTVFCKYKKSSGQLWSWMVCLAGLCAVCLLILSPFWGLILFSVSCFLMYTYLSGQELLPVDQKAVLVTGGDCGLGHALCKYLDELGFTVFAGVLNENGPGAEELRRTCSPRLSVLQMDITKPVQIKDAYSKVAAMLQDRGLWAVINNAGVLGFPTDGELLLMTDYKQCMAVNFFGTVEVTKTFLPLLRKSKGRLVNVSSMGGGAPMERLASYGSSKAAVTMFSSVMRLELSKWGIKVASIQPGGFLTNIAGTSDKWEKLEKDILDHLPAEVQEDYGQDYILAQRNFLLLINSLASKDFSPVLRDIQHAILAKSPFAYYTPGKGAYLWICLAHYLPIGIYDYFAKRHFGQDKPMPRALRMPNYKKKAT
# protocol_summary: Inhibition of human 17β-HSD2 (conversion of [3H]-E2 to E1)
# Format: biochemical
# assay_context: read-out: % inhibition h17β-HSD2 @ 1 μM
measured_property: inhibition at 1 µM (%)
Report the value in % with no unit label.

compound	quantity_unit	number
Cc1c(O)cccc1C(=O)c1ccc(-c2ccc(O)c(Cl)c2)s1 [E, reference compound]	%	93
O=C(c1ccc(-c2cc(Cl)c(O)c(Cn3ccnn3)c2)s1)c1c(F)ccc(O)c1F	%	30
O=C(c1ccc(-c2cccnc2)s1)c1c(F)ccc(O)c1F	%	64
O=C(c1ccc(-c2ccncc2)s1)c1c(F)ccc(O)c1F	%	49
COc1c(Cl)cc(-c2ccc(C(=O)c3c(F)ccc(OC(C)=O)c3F)s2)cc1Cn1ccnn1 [Compound 31a]	%	32

Turning to the following compound.
Requested read-out: inhibition at 1 µM. Entry: `COc1ccc(-c2ccc(C(=O)c3c(F)ccc(O)c3F)s2)cc1S(=O)(=O)N1CCOCC1`
85

* * *

# target_desc: mouse 17β-HSD1 (Mus musculus, UniProt P51656)
# Construct: made in house; host or cells: HEK293 cells, transient transfection; 1,000 g supernatant of the cell lysate
# Sequence (P51656 1-344): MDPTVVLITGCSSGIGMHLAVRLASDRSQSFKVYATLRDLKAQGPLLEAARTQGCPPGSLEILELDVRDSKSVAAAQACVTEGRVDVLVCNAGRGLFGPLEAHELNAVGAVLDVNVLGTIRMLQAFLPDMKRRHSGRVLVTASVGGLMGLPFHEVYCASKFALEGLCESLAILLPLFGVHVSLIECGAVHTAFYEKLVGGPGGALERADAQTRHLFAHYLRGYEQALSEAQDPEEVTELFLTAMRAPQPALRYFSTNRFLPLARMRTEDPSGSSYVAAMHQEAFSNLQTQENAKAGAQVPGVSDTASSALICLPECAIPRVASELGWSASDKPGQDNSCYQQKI
# protocol_summary: Inhibition of mouse 17β-HSD1 (recombinant, HEK293 lysate)
# Format: biochemical
# assay_context: recombinant mouse enzyme, E1 10 nM, NADPH; read-out: IC50 m17β-HSD1
Form field: pIC50 (one value per entry).
Recall that pIC50 is obtained by taking minus log10 of the concentration measured in molar.

Before answering, review these 3 worked examples.
compound	target_desc	pIC50
O=C(c1ccc(-c2ccc3cc[nH]c3c2)s1)c1cc(F)c(F)c(O)c1F [Compound 43]	mouse 17β-HSD1 (Mus musculus, UniProt P51656)	5.94
Cc1cc(-c2ccc(C(=O)c3c(F)ccc(O)c3F)s2)cc(C)c1O [Compound 24]	mouse 17β-HSD1 (Mus musculus, UniProt P51656)	6.40
Cc1cc(-c2ccc(C(=O)c3cc(F)c(F)c(O)c3F)s2)cc(C)c1O [Compound 50]	mouse 17β-HSD1 (Mus musculus, UniProt P51656)	6.19

// query pIC50 value for entry COc1c(Cl)cc(-c2ccc(C(=O)c3cc(F)c(F)c(O)c3F)s2)cc1Cl [Compound 45]
5.76

* * *

# target_desc: rat 17β-HSD2 (Rattus norvegicus)
# Construct: The pellet fractions containing the microsomal 17β-HSD2 were used for the determination of E1 formation; from tissue; host or cells: rat liver, microsomal fraction
# Sequence (Q62730 1-381): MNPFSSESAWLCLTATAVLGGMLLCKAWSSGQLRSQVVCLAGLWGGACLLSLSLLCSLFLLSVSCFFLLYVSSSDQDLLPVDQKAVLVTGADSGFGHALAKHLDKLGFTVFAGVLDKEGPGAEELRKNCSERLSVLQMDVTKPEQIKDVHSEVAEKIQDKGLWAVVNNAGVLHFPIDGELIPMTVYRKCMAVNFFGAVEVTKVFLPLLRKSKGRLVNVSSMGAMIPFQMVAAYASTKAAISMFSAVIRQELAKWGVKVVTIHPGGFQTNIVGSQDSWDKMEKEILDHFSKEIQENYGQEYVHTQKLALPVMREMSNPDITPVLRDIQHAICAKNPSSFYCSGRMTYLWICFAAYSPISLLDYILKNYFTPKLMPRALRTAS
# protocol_summary: Inhibition of rat 17β-HSD2 (liver microsomal fraction)
# Format: biochemical
# assay_context: read-out: % Inhibition r17β-HSD2
measured_property: inhibition at […] (%)
The figure you give is taken to be in %; do not add the unit.

molecule	inhibition at […], %
O=C(c1ccc(-c2cccc(NS(=O)(=O)c3ccccc3C(F)(F)F)c2)s1)c1cc(F)c(F)c(O)c1F [Compound 38]	96
O=C(c1ccc(-c2ccc(F)cc2F)s1)c1c(F)ccc(O)c1F [Compound 10]	66
Cc1cc(-c2ccc(C(=O)c3c(F)ccc(O)c3F)s2)cc(C)c1O [Compound 24]	35

Item O=C(c1ccc(-c2ccc(F)cc2F)s1)c1cc(F)c(F)c(O)c1F [Compound 40] has what recorded inhibition at […]?
86

What measured inhibition at […] goes with O=C(c1ccc(-c2cccc(NS(=O)(=O)c3ccccc3OC(F)(F)F)c2)s1)c1cc(F)c(F)c(O)c1F [Compound 37] ?
93

Entry under review: Nc1cccc(-c2ccc(C(=O)c3cc(F)c(F)c(O)c3F)s2)c1 [Compound 35] . Reported inhibition at […]?
100

# input molecule: O=C(c1ccc(-c2cc(Cl)c(O)c(Cn3ccnn3)c2)s1)c1c(F)ccc(O)c1F [Compound 32] ; wanted: its inhibition at […]
66

# input molecule: COc1c(C)cc(-c2ccc(C(=O)c3c(F)ccc(O)c3F)s2)cc1C [Compound 16] ; wanted: its inhibition at […]
27

Dear colleague, I am looking for the recorded inhibition at […] of the following molecule: O=C(c1ccc(-c2ccc(F)cc2F)s1)c1cccc(O)c1F [C, reference compound]
20

For the molecule O=C(c1ccc(Br)s1)c1c(F)ccc(O)c1F [Compound 1e] , what inhibition at […] is on record?
60

Using the record for O=C(c1ccc(-c2cccc(NS(=O)(=O)c3ccc(Br)cc3OC(F)(F)F)c2)s1)c1cc(F)c(F)c(O)c1F [Compound 36] , report its inhibition at […].
100

* * *

# target_desc: human 17β-HSD1 (Homo sapiens)
# Construct: For the partial purification of 17β-HSD1, the cytosolic fraction was precipitated with ammonium sulfate; from tissue; host or cells: human placenta, cytosolic fraction, ammonium sulfate precipitate
# Sequence (P14061 1-328): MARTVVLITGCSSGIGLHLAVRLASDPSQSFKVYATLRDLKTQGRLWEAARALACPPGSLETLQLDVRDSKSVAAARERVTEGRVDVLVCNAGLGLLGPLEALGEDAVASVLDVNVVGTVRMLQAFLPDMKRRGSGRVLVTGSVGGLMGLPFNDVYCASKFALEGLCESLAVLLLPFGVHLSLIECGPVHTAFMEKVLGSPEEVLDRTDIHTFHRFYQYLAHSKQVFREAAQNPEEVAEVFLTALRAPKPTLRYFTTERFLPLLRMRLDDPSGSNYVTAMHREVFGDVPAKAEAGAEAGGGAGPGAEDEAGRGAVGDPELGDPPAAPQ
# protocol_summary: Inhibition of human 17β-HSD1 (conversion of [3H]-E1 to E2, HPLC radioflow detection)
# Type: biochemical
measured_property: pIC50
The meaning of pIC50 here: minus log10 of the concentration in molar units.

I would be grateful if you could share the reported pIC50 for `O=C(c1ccc(-c2cccc(NS(=O)(=O)c3ccccc3C(F)(F)F)c2)s1)c1cc(F)c(F)c(O)c1F` .
8.32

Given the compound `O=C(c1ccc(-c2cccc(NS(=O)(=O)c3ccc(Br)cc3OC(F)(F)F)c2)s1)c1cc(F)c(F)c(O)c1F` , what is its reported pIC50?
8.62
